Values compiled from patent US20050245497A1.

- Tested on: bacterial endotoxin induced exudative response
- assay: Bacterial endotoxin induced exudative response in rabbits, anterior chamber fluorophotometry of FITC-dextran
- Assay type: in vivo, New Zealand albino rabbits
- runParameters: Rabbit 3; topical 4 mg/ml, 50 μL drop at 0, 1, 2 and 3 hours, treated right eye; FITC-dextran fluorescence 90 minutes after endotoxin
Tick t if Anterior Chamber Fluorophotometer Results is 100 or greater. Tick f if Anterior Chamber Fluorophotometer Results is less than 100.

* C[C@]12CCC(=O)C=C1CC[C@@H]1[C@@H]2[C@@H](O)C[C@]2(C=O)[C@@H](C(=O)CO)CC[C@@H]12 | t
* CC(=O)OCC(=O)[C@@]1(O)CC[C@H]2[C@@H]3CCC4=CC(=O)CC[C@]4(C)[C@@]3(F)[C@@H](O)C[C@@]21C [FA, fludrocortisone acetate] | t
* C[C@]12CCC(=O)C=C1CC[C@@H]1[C@@H]2CC[C@@]2(C)[C@H]1CC[C@]2(O)C(=O)CO [11-DC, 17α,21-dihydroxypregn-4-ene-3,20-dione] | t
* CC(=O)OCC(=O)[C@H]1CC[C@H]2[C@@H]3CCC4=CC(=O)CC[C@]4(C)[C@H]3CC[C@]12C | t
* C[C@]12CC[C@H]3[C@@H](CCC4=CC(=O)CC[C@@]43C)[C@@H]1CC[C@@H]2C(=O)CO [DS, 21-hydroxypregn-4-ene-3,20-dione] | f
